system: velvetleaf; assay: Test B pre/postemergence velvetleaf; assay type: in vivo, Abutilon theophrasti; settings: Preemergence, Rate 500 g/ha; scale of 0 to 10 where 0 is no effect and 10 is complete control
Known Plant response rating, Velvetleaf of a selection of compounds
Reply briefly: the number, and no unit.

Worked examples, 3 compounds total:
COMPOUND	SYSTEM_UNDER_TEST	Plant response rating, Velvetleaf
Cc1ccccc1-n1c(=O)on(C(=O)N(c2ccc(N(C)C)cc2)C(C)C)c1=O	velvetleaf	0
C=CCn1c(=O)on(C(=O)N(c2ccc(F)cc2)C(C)C(=O)OCC)c1=O (stereo not shown)	velvetleaf	0
CCC(CC)N(C(=O)n1oc(=O)n(-c2ccccc2C)c1=O)c1ccc(F)cc1	velvetleaf	0

Given item CC(C)N(C(=O)n1oc(=O)n(C(C)C(=O)c2ccccc2)c1=O)c1ccc(F)cc1 (stereo not shown) , the value recorded as its Plant response rating, Velvetleaf is 0

Briefly, Plant response rating, Velvetleaf measured for CC(=O)OCC(CCl)n1c(=O)on(C(=O)N(c2ccc(F)cc2)C(C)C)c1=O (stereo not shown) : 0

For reference, reported Plant response rating, Velvetleaf for CC(C)N(C(=O)n1oc(=O)n(CC2CC2)c1=O)c1ccc(F)cc1 stands at 7

Noted for CC(C)N(C(=O)n1oc(=O)n(CC2CCCCO2)c1=O)c1ccc(F)cc1 (stereo not shown) : its Plant response rating, Velvetleaf reads 8
